Would you mind telling me the reported IC50 of each entry?
biological target: human DGAT2 (Homo sapiens, UniProt Q96PD7); assay: Diacylglycerol Acyltransferase 2 (DGAT2) Cell-Based Assay (HepG2); design: This assay uses human hepatoma cell-line, HepG2, as a source of acyltransferase activity; endogenous in cells; host or cells: HepG2; details: geometric mean; HepG2 cells, incorporation of 13C18-oleate into triolein normalized to POPC; read-out: IC50 (nM) mean ± SD, (n) = number of experiments
Numeric only. Scale: nM

# input compound: `CN1CCN(c2nc(CNc3ncc(Cl)cn3)cc(Oc3ccc(CS(N)(=O)=O)cc3)n2)CC1` ; wanted: its IC50 9

# input compound: `CNS(=O)(=O)Cc1ccc(Oc2cc(CNc3ncc(Cl)cn3)nc(C(F)(F)F)n2)cc1` ; wanted: its IC50 17

# input compound: `CCc1cnc(NCc2cc(Oc3ccc(CCNS(C)(=O)=O)cc3)nc(N)n2)nc1` ; wanted: its IC50 53

# input compound: `CCc1cnc(NCc2ccnc(Oc3ccc(CS(N)(=O)=O)cc3F)c2)nc1` ; wanted: its IC50 36

---

Target: human DGAT2 (Homo sapiens)
Sequence (Q96PD7 1-388): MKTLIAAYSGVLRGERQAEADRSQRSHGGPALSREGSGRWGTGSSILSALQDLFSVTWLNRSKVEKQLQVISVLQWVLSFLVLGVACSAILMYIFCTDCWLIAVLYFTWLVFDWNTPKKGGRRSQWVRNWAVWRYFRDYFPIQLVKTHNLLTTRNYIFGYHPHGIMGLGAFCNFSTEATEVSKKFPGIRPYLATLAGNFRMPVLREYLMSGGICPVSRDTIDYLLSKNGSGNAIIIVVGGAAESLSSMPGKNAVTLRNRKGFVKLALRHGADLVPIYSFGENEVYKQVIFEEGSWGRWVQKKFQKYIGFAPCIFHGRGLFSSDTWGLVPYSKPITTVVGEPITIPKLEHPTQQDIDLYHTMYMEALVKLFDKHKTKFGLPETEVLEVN
Assay: Diacylglycerol Acyltransferase 2 (DGAT2) Biochemical Assay
Settings: geometric mean; recombinant human DGAT2 with FLAG tag, 1 hr at RT, 14C oleoyl-CoA; read-out: IC50 (nM), ± SD, (n) = number of experiments
Protocol: The in vitro inhibitory activity of compounds against human DGAT2 is evaluated in this assay. The assay uses recombinant human DGAT2 with a FLAG tag at the amino terminus, expressed in genetically engineered insect SF9 cells, and purified through affinity chromatography. DGAT2 catalyzes transfer of an acyl moiety from acyl-Coenzyme A onto diacylglycerol, to form triacylglycerol. In this particular embodiment of the assay oleate is used as the acyl moiety that is transferred. […]
Would you mind telling me the reported IC50 of each entry?
Numeric only. Scale: nM

# input molecule: `CCc1cnc(NCc2cc(Oc3ccc(CCNS(C)(=O)=O)cc3)nc(N)n2)nc1` ; wanted: its IC50 103

# input molecule: `CCc1cnc(NCc2ccnc(Oc3ccc(CS(N)(=O)=O)cc3F)c2)nc1` ; wanted: its IC50 27

# input molecule: `CN1CCN(c2nc(CNc3ncc(Cl)cn3)cc(Oc3ccc(CS(N)(=O)=O)cc3)n2)CC1` ; wanted: its IC50 579

# input molecule: `CNS(=O)(=O)Cc1ccc(Oc2cc(CNc3ncc(Cl)cn3)nc(C(F)(F)F)n2)cc1` ; wanted: its IC50 52
